The reader will find reported IC50 values listed item by item below.
# targetOrTestSystem: NAMPT (Homo sapiens)
# Construct: His tag; host or cells: E. coli
# assaySummary: Biochemical inhibition assay: NAMPT enzymatic reaction, NMN quantified by mass spectrometry
# recordedConditions: NAMPT enzymatic assay; read-out: Biochem IC50

For the record Cc1cc(Cl)cnc1S(=O)(=O)c1ccc(CNC(=O)c2cnc3nccn3c2)cc1 , what value of IC50 is listed for NAMPT (Homo sapiens)?
2.2 nM

For the record O=C(NCc1ccc(S(=O)(=O)c2ccccc2)cc1)c1ccc2ncccc2c1 , what value of IC50 is listed for NAMPT (Homo sapiens)?
108 nM

For the record CCN(CC)C(=O)c1cc(Cl)cc(S(=O)(=O)c2ccc(CNC(=O)c3cnc4nccn4c3)cc2)c1 , what value of IC50 is listed for NAMPT (Homo sapiens)?
0.9 nM

For the record CC(C)Oc1ccc(Cl)cc1S(=O)(=O)c1ccc(CNC(=O)c2cnc3nccn3c2)cc1 , what value of IC50 is listed for NAMPT (Homo sapiens)?
4.7 nM

For the record COc1ccc(S(=O)(=O)c2ccc(CNC(=O)c3cc4cnccc4[nH]3)cc2)c(C(F)(F)F)c1 , what value of IC50 is listed for NAMPT (Homo sapiens)?
80.4 nM

For the record O=C(NCc1ccc(S(=O)(=O)c2cccc3c2OCO3)cc1)c1cc2cnccc2[nH]1 , what value of IC50 is listed for NAMPT (Homo sapiens)?
20.5 nM

For the record CC(C)NC(=O)c1cc(S(=O)(=O)c2ccc(CNC(=O)c3cc4ccncc4s3)cc2)ccc1F , what value of IC50 is listed for NAMPT (Homo sapiens)?
21.3 nM

For the record O=C(NCc1ccc(S(=O)(=O)c2ccc(C(F)(F)F)cn2)cc1)c1cc2ccncc2s1 , what value of IC50 is listed for NAMPT (Homo sapiens)?
23.5 nM

For the record CN(C)CCc1ccc(S(=O)(=O)c2ccc(CNC(=O)c3ccc4nccn4c3)cc2)cc1 , what value of IC50 is listed for NAMPT (Homo sapiens)?
2.1 nM

For the record O=C(NCc1ccc(S(=O)(=O)c2csc(-c3cccc(F)c3)n2)cc1)c1ccc2nccn2c1 , what value of IC50 is listed for NAMPT (Homo sapiens)?
22.9 nM

---
For the record Cc1cnc(S(=O)(=O)c2ccc(CNC(=O)c3cc4ccncc4o3)cc2)n1C , what value of IC50 is listed for NAMPT (Homo sapiens)?
57.4 nM

For the record Cn1ncc2cc(S(=O)(=O)c3ccc(CNC(=O)c4ccc5nccn5c4)cc3)ccc21 , what value of IC50 is listed for NAMPT (Homo sapiens)?
4 nM

For the record CCN(CC)C(=O)c1cc(Cl)cc(S(=O)(=O)c2ccc(CNC(=O)c3cc4ccncc4o3)cc2)c1 , what value of IC50 is listed for NAMPT (Homo sapiens)?
8.4 nM

###

# targetOrTestSystem: NAMPT (Homo sapiens, UniProt P43490)
# Construct: His tag; host or cells: E. coli
# Sequence (P43490 whole entry): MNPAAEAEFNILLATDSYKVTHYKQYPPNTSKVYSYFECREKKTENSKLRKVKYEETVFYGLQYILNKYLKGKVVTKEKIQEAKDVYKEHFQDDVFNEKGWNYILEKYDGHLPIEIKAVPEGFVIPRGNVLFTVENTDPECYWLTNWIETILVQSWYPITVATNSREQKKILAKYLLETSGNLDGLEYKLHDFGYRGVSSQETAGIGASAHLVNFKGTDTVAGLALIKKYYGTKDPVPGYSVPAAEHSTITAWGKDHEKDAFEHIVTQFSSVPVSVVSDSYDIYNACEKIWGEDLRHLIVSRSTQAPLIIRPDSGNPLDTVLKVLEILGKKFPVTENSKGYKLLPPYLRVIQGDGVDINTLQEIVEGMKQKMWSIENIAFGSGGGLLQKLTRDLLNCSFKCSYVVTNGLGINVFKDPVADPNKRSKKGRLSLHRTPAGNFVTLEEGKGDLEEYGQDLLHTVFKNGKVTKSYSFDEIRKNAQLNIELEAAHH
# assaySummary: Biochemical inhibition assay: NAMPT enzymatic reaction, NMN quantified by mass spectrometry
# recordedConditions: NAMPT enzymatic reaction; read-out: Biochem IC50
The reader will find reported IC50 values listed item by item below.
Write the value in nM as a bare number.

// below: answered compounds
// query IC50 value for entry CCCCOc1ccc(S(=O)(=O)c2ccc(CNC(=O)c3cc4ccncc4o3)cc2)cc1F
12.3

// query IC50 value for entry COc1c(F)cccc1S(=O)(=O)c1ccc(CNC(=O)c2cc3ccncc3o2)cc1
16.6

// query IC50 value for entry COc1ccc(S(=O)(=O)c2ccc(CNC(=O)c3cc4cnccc4[nH]3)cc2)c(C)c1
24

// query IC50 value for entry O=C(NCc1ccc(S(=O)(=O)c2ccc(-c3ccccc3)cc2)cc1)c1cnc2[nH]ncc2c1
32

---
// query IC50 value for entry Cc1ccc(Cl)c(S(=O)(=O)c2ccc(CNC(=O)c3cc4ccncc4s3)cc2)c1
2.2

// query IC50 value for entry COc1ccc(Cl)cc1S(=O)(=O)c1ccc(CNC(=O)c2cc3cnccc3[nH]2)cc1
6

// query IC50 value for entry N#Cc1ccccc1S(=O)(=O)c1ccc(CNC(=O)c2cnc3[nH]ncc3c2)cc1
131

// query IC50 value for entry O=C(NCc1ccc(S(=O)(=O)N2CCCCC2)cc1)c1ccc2ncsc2c1
9

// query IC50 value for entry CCOc1cc(F)ccc1S(=O)(=O)c1ccc(CNC(=O)c2cnc3[nH]ncc3c2)cc1
86.3

###

# targetOrTestSystem: NAMPT (Homo sapiens, UniProt P43490)
# Construct: His tag; host or cells: E. coli
# assaySummary: Biochemical inhibition assay: NAMPT enzymatic reaction, NMN quantified by mass spectrometry
# recordedConditions: NAMPT enzymatic reaction; read-out: Biochem IC50
measuredAttribute: pIC50
Interpret pIC50 as the negative base-10 log of the concentration measured in mol/L.

// below: answered molecules
// query pIC50 value for entry CCCCc1ccc(S(=O)(=O)c2ccc(CNC(=O)c3ccc4nccn4c3)cc2)cc1
8.24

// query pIC50 value for entry CCOc1ccc(S(=O)(=O)c2ccc(CNC(=O)c3cnc4nccn4c3)cc2)cc1F
9.05

// query pIC50 value for entry O=C(NCc1ccc(S(=O)(=O)c2ccc(Cl)c(Cl)c2)cc1)c1cnc2[nH]ncc2c1
8.17

// query pIC50 value for entry O=C(NCc1ccc(S(=O)(=O)c2ccccc2)cc1)c1nc2cnccc2[nH]1
5.15

// query pIC50 value for entry O=C(NCc1ccc(S(=O)(=O)c2ccccc2Cl)cc1)c1ccc2nccn2c1
7.62

---
// query pIC50 value for entry COc1cc(F)ccc1S(=O)(=O)c1ccc(CNC(=O)c2cnc3nccn3c2)cc1
7.72

// query pIC50 value for entry O=C(NCc1ccc(S(=O)(=O)c2ccc(-c3ccccc3)cc2)cc1)c1ccc2ncsc2c1
7.68

// query pIC50 value for entry CCCOc1cccc(F)c1S(=O)(=O)c1ccc(CNC(=O)c2cc3ccncc3o2)cc1
7.88

###

# targetOrTestSystem: NAMPT (Homo sapiens, UniProt P43490)
# Construct: His tag; host or cells: E. coli
# assaySummary: Biochemical inhibition assay: NAMPT enzymatic reaction, NMN quantified by mass spectrometry
# recordedConditions: NAMPT enzymatic reaction; read-out: Biochem IC50
measuredAttribute: pIC50
Interpret pIC50 as the negative base-10 log of the concentration measured in mol/L.

// query pIC50 value for entry O=C(NCc1ccc(S(=O)(=O)N2CC3CCC(C2)O3)cc1)c1cc2ccncc2s1
7.82

// query pIC50 value for entry COc1cccc(S(=O)(=O)c2ccc(CNC(=O)c3ccc4nccn4c3)cc2)c1OC
7.16

// query pIC50 value for entry COc1ccc(NS(=O)(=O)c2ccc(CNC(=O)c3cc4cnccc4[nH]3)cc2)c(C)c1
5.84

// query pIC50 value for entry O=C(NCc1ccc(S(=O)(=O)c2ccc3c(c2)OCO3)cc1)c1cc2cnccc2[nH]1
8.10

---
// query pIC50 value for entry COc1cc(S(=O)(=O)c2ccc(CNC(=O)c3cc4ccncc4s3)cc2)ccc1F
8.05

###

The reader will find reported pIC50 values listed item by item below.
# targetOrTestSystem: NAMPT (Homo sapiens)
# Construct: His tag; host or cells: E. coli
# assaySummary: Biochemical inhibition assay: NAMPT enzymatic reaction, NMN quantified by mass spectrometry
# recordedConditions: NAMPT enzymatic reaction; read-out: Biochem IC50
Interpret pIC50 as the negative base-10 log of the concentration measured in mol/L.

// below: answered molecules
// query pIC50 value for entry Cc1ccc(Cl)cc1S(=O)(=O)c1ccc(CNC(=O)c2cc3ccncc3o2)cc1
8.24

// query pIC50 value for entry O=C(NCc1ccc(S(=O)(=O)N2CCCCC2)cc1)c1ccn2nnnc2c1
8.52

---
// query pIC50 value for entry O=C(NCc1ccc(S(=O)(=O)c2ccccc2CN2CCOCC2)cc1)c1cc2cnccc2[nH]1
7.47

// query pIC50 value for entry COc1ccc(S(=O)(=O)c2ccc(CNC(=O)c3ccc4nccn4c3)cc2)cc1C
7.85

###

# targetOrTestSystem: NAMPT (Homo sapiens)
# Construct: His tag; host or cells: E. coli
# assaySummary: Biochemical inhibition assay: NAMPT enzymatic reaction, NMN quantified by mass spectrometry
# recordedConditions: NAMPT enzymatic reaction; read-out: Biochem IC50
measuredAttribute: pIC50
Interpret pIC50 as the negative base-10 log of the concentration measured in mol/L.

// below: answered molecules
// query pIC50 value for entry O=C(NCc1ccc(S(=O)(=O)c2cccc(Cl)c2)cc1)c1cnc2nccn2c1
8.89

// query pIC50 value for entry CCOc1cc(F)ccc1S(=O)(=O)c1ccc(CNC(=O)c2cc3cnccc3[nH]2)cc1
8.47

// query pIC50 value for entry O=C(NCc1ccc(S(=O)(=O)Nc2cccc3cccnc23)cc1)c1cc2cnccc2[nH]1
7.12

// query pIC50 value for entry COc1ccccc1S(=O)(=O)c1ccc(CNC(=O)c2ccc3nccn3c2)cc1
7.58

Continue with the molecule presented below.
// query pIC50 value for entry Cc1ccc(C)c(S(=O)(=O)c2ccc(CNC(=O)c3cc4ccncc4s3)cc2)c1
7.96
